Test: Long term stability study
Type: physicochemical
Conditions: 6th month vs initial

| MOLECULE | Difference in TQ content |
| --- | --- |
| CC1=CC(=O)C(C(C)C)=CC1=O [TQ, thymoquinone] | 0.099% |

---

Experiment: Accelerated stability study
Assay type: physicochemical
Conditions: accelerated stability, 6th month vs initial
EXPERIMENTAL ENDPOINT: Difference in TQ content (%)

| STRUCTURE | EXPERIMENTAL ENDPOINT | REPORTED VALUE |
| --- | --- | --- |
| CC1=CC(=O)C(C(C)C)=CC1=O | Difference in TQ content | 0.185 |

---

Assay: Accelerated stability study
Assay type: physicochemical
Settings: accelerated stability, 2nd month vs initial
EXPERIMENTAL ENDPOINT: Difference in TQ content (%)

| STRUCTURE | REPORTED VALUE |
| --- | --- |
| CC1=CC(=O)C(C(C)C)=CC1=O | 0.027 |

---

Test: Accelerated stability study
Type: physicochemical
Settings: accelerated stability, 3rd month vs initial
EXPERIMENTAL ENDPOINT: Difference in TQ content (%)

| STRUCTURE | EXPERIMENTAL ENDPOINT | REPORTED VALUE |
| --- | --- | --- |
| CC1=CC(=O)C(C(C)C)=CC1=O | Difference in TQ content | 0.111 |
